- Test system: Ruminococcus gnavus DSM 108212
- experiment: fold change of Tryptamine concentration vs plate DMSO controls (fold change (ratio)); higher = more amine produced, active = hit call of the paper (significant change in both replicates, either direction)
- condition set: 20 µM; incubation time: 27 h, anaerobic, 37 °C
Structures can show the parent of a compound that is named as a salt.
Classification field: enter yes for fold change of Tryptamine concentration values not below 1, no for values below it.

C[C@]12CC[C@H](O)C[C@H]1CC[C@@H]1[C@@H]2C[C@@H](O)[C@]2(C)[C@@H](C3=CC(=O)OC3)CC[C@]12O: yes

# input I'd appreciate it if you could say whether CC(C)(N)Cc1ccccc1 [Phentermine hydrochloride] has fold change of Tryptamine concentration at least equal to 1.
# output no

---

- System: Klebsiella aerogenes DSM 30053
- experiment: growth (OD595) fold change vs plate DMSO controls (fold change (ratio)); higher = more growth
- condition set: 20 µM; incubation time: 27 h, anaerobic, 37 °C
Structures can show the parent of a compound that is named as a salt.
observed property: growth

Completed entries (count: 10):
CN1CCN(C(=O)OC2c3nccnc3C(=O)N2c2ccc(Cl)cn2)CC1 (stereo not drawn): 0.952
CC(C)c1cccc(C(C)C)c1O: 1
CCCN(CCOc1c(Cl)cc(Cl)cc1Cl)C(=O)n1ccnc1: 1.01
C[C@H](N)[C@H](O)c1ccc(O)c(O)c1: 1
COC(=O)NC(=S)Nc1ccccc1NC(=S)NC(=O)OC: 0.97
CNC(C)(C)Cc1ccccc1 [Mephentermine hemisulfate]: 0.99
CC(C)(C)C(O)C(Oc1ccc(Cl)cc1)n1cncn1 (stereo not drawn): 0.994
Nc1nc(N)nc(NC2CC2)n1: 1.01
CC(C)OC(=O)C(C(=O)OC(C)C)=C1SCCS1: 1.02
CCOCN(C(=O)CCl)c1c(C)cccc1CC: 0.997

# input Notebook entry, Klebsiella aerogenes DSM 30053 assay: growth of COc1cc2c(c(OC)c1OC)-c1ccc(OC)c(=O)cc1[C@@H](NC(C)=O)CC2 = ?
# output 0.975

# input Please provide the recorded growth for CC(=O)O[C@H]1CC[C@@]2(C)C(=CC[C@@H]3[C@@H]2CC[C@]2(C)C(=O)CC[C@@H]32)C1 [Dehydroisoandosterone 3-acetate] , tested on Klebsiella aerogenes DSM 30053.
# output 0.994

# input Kindly state the measured growth obtained for CCNC1(c2cccs2)CCCCC1=O (stereo not drawn) [Tiletamine hydrochloride] with Klebsiella aerogenes DSM 30053.
# output 0.995

# input Fill in the recorded growth for this molecule, with Klebsiella aerogenes DSM 30053 as test system: O=C(O)C(F)(F)C(F)(F)C(F)(F)C(F)(F)C(F)(F)C(F)(F)C(F)(F)C(F)(F)F
# output 1.01

# input Return growth measured with Klebsiella aerogenes DSM 30053 given this molecule: CC(C)(C)NCC(O)c1ccccc1Cl (stereo not drawn) [Tulobuterol hydrochloride]
# output 1

# input Notebook entry, Klebsiella aerogenes DSM 30053 assay: growth of CC[C@H](C)C1O[C@]2(C=C[C@@H]1C)C[C@@H]1C[C@@H](C/C=C(\C)[C@@H](O[C@H]3C[C@H](OC)[C@@H](O[C@H]4C[C@H](OC)[C@H](NC)[C@H](C)O4)[C@H](C)O3)[C@@H](C)/C=C/C=C3\CO[C@@H]4[C@H](O)C(C)=C[C@@H](C(=O)O1)[C@]34O)O2 (stereo partly drawn) = ?
# output 1.05

# input Recall the recorded growth for CCN(CC)CCOC(=O)C(O)(c1ccccc1)c1ccccc1 [Benactyzine hydrochloride] with Klebsiella aerogenes DSM 30053 and state it.
# output 1.01

# input # value lookup — system Klebsiella aerogenes DSM 30053, readout growth, item O=S(=O)(c1ccc(O)cc1)c1ccc(O)cc1
# output 0.994

# input Given the entry COP(=S)(OC)Oc1nc(Cl)c(Cl)cc1Cl , what growth was observed with Klebsiella aerogenes DSM 30053?
# output 1.02

# input Reported growth for Klebsiella aerogenes DSM 30053, given C[N+]1([O-])[C@@H]2C[C@@H](OC(=O)[C@H](CO)c3ccccc3)C[C@H]1[C@@H]1O[C@@H]12 (stereo partly drawn) [Scopolamin-N-oxide hydrobromide] ?
# output 1.01

# input Recorded growth for N#Cc1cc(Br)c(O)c(Br)c1 with Klebsiella aerogenes DSM 30053, please?
# output 0.928

# input Given the entry CNCC(O)c1ccc(O)cc1 (stereo not drawn) [Synephrine] , what growth was observed with Klebsiella aerogenes DSM 30053?
# output 1.01

---

Listed molecules paired with reported growth
- System: Clostridium sporogenes DSM 1664
- experiment: growth (OD595) fold change vs plate DMSO controls (fold change (ratio)); higher = more growth
- condition set: 20 µM; incubation time: 27 h, anaerobic, 37 °C
// print number alone

Known results for molecules:
C[C@]12CC[C@H](O)C[C@H]1CC[C@@H]1[C@@H]2CC[C@]2(C)[C@@H](C3=CC(=O)OC3)CC[C@]12O [Digitoxigenin]: 1.02
CC(C)N1C(=O)N(c2ccccc2)CS/C1=N\C(C)(C)C: 1.04
COP(=S)(OC)Oc1ccc(SC)c(C)c1: 1.1
C[C@]12C/C(=C/O)C(=O)C[C@@H]1CC[C@@H]1[C@@H]2CC[C@@]2(C)[C@H]1CC[C@]2(C)O [Oxymetholone]: 1.21

# input Which growth is reported for this molecule? CNC(=O)ON=C(C)SC
# output 1.01

# input What value of growth has been reported for the following molecule? Cc1ccccc1[N+](=O)[O-] [2-Nitrotoluene]
# output 0.884

---

- Test system: Escherichia coli IAI1
- experiment: fold change of Cadaverine concentration vs plate DMSO controls (fold change (ratio)); higher = more amine produced, active = hit call of the paper (significant change in both replicates, either direction)
- condition set: 20 µM; incubation time: 27 h, anaerobic, 37 °C
Where a name gives a salt, the structure may show the parent alone.
Recorded fold change of Cadaverine concentration, one value per entry.
# respond with the number and nothing more

NCC(CC(=O)O)c1ccc(Cl)cc1 (stereo unspecified) [Baclofen]: 1
CC(C)N(CCC(C(N)=O)(c1ccccc1)c1ccccn1)C(C)C (stereo unspecified) [Disopyramide]: 1.01
CC1(C)CON(Cc2ccccc2Cl)C1=O: 1.02

# input What value of fold change of Cadaverine concentration has been reported for the following molecule? CC1(C)[C@H](C(=O)O[C@H](C#N)c2cccc(Oc3ccccc3)c2)[C@@H]1C=C(Br)Br
# output 0.989

# input Form field: reported fold change of Cadaverine concentration of C[N+]1([O-])[C@@H]2C[C@@H](OC(=O)[C@H](CO)c3ccccc3)C[C@H]1[C@@H]1O[C@@H]12 (stereo partly specified) [Scopolamin-N-oxide hydrobromide]
# output 0.991

# input For CON(C)C(=O)Nc1ccc(Cl)c(Cl)c1 , what is its reported fold change of Cadaverine concentration?
# output 1.02

# input Item Cc1cccc(C)c1NC1=NCCCS1 [Xylazine] has what recorded fold change of Cadaverine concentration?
# output 0.991

---

- Test system: Klebsiella aerogenes DSM 30053
- experiment: growth (OD595) fold change vs plate DMSO controls (fold change (ratio)); higher = more growth
- condition set: 20 µM; incubation time: 27 h, anaerobic, 37 °C
Structures can show the parent of a compound that is named as a salt.
The following compounds are shown together with reported growth values.
Keep the answer to the number alone.

# input I am curious: what growth value has been reported for CO/N=C(/C(=O)OC)c1ccccc1CO/N=C(\C)c1cccc(C(F)(F)F)c1 ?
# output 0.98

# input What does the record list as growth for COc1cccc(C(=O)NN(C(=O)c2cc(C)cc(C)c2)C(C)(C)C)c1C ?
# output 1.01

# input Requested field: growth. Item: CC1COC(Cn2cncn2)(c2ccc(Oc3ccc(Cl)cc3)cc2Cl)O1 (configuration not stated)
# output 1.01

# input Can you look up the measured growth of COP(=S)(OC)Oc1ccc(SC)c(C)c1 for me?
# output 0.997

# input What value of growth has been reported for the following compound? CN1C(=O)CCS(=O)(=O)C1c1ccc(Cl)cc1 (configuration not stated) [Chlormezanone]
# output 1.02

# input Fill blank: measured growth of the compound CCN(C)C(=O)Oc1cccc([C@H](C)N(C)C)c1 [Rivastigmine] is ____.
# output 1.02

# input Looking for the measured growth of CCCN1C[C@H](CSC)C[C@@H]2c3cccc4[nH]cc(c34)C[C@H]21 [Pergolide mesylate] , can you help?
# output 0.998

---

- System: Clostridium sporogenes DSM 1664
- experiment: fold change of Tryptamine concentration vs plate DMSO controls (fold change (ratio)); higher = more amine produced, active = hit call of the paper (significant change in both replicates, either direction)
- condition set: 20 µM; incubation time: 27 h, anaerobic, 37 °C
Where a name gives a salt, the structure may show the parent alone.
observed property: fold change of Tryptamine concentration
Output: the number by itself.

CN1[C@@H]2CC[C@H]1C[C@@H](OC1c3ccccc3CCc3ccccc31)C2 [Deptropine citrate]: 1.17
CN1C(=O)CCS(=O)(=O)C1c1ccc(Cl)cc1 (stereo not drawn): 0.944
C[C@]12Cc3c[nH]nc3C[C@@H]1CC[C@@H]1[C@@H]2CC[C@@]2(C)[C@H]1CC[C@]2(C)O: 0.973
C#C[C@]1(O)C=C[C@H]2[C@@H]3CCC4=CC(=O)CC[C@@H]4[C@H]3CC[C@@]21CC: 1.03
C[N+](C)(C)CCCl: 1.03
C=C[C@H]1CN2CC[C@H]1C[C@H]2[C@H](OC(=O)OCC)c1ccnc2ccc(OC)cc12 [Quinine ethyl carbonate]: 1.01
c1ccc2c(c1)-c1cccc3cccc-2c13: 1.01
CN(C)C(=O)Oc1ccc[n+](C)c1 [Pyridostigmine iodide]: 0.975

# input Query fold change of Tryptamine concentration on Clostridium sporogenes DSM 1664 for COc1ccc(C(=O)N2CCCC2=O)cc1
# output 1.09

# input Test system Clostridium sporogenes DSM 1664; read-out fold change of Tryptamine concentration; what value for COc1ccc(-c2ccccc2)cc1NNC(=O)OC(C)C ?
# output 0.997

# input Give Clostridium sporogenes DSM 1664 fold change of Tryptamine concentration for CS(=O)(=O)c1ccc(C(=O)C2C(=O)CCCC2=O)c([N+](=O)[O-])c1
# output 0.928

# input Request: fold change of Tryptamine concentration, test system Clostridium sporogenes DSM 1664, entry CC1C=CC=CCCC=CC=CC=CC=CC(OC2OC(C)C(O)C(N)C2O)CC2OC(O)(CC(O)C(O)CCC(O)CC(O)CC(O)CC(=O)OC(C)C(C)C1O)CC(O)C2C(=O)O (stereo not drawn)
# output 0.989

# input Query fold change of Tryptamine concentration on Clostridium sporogenes DSM 1664 for CN1C[C@H](CNC(=O)OCc2ccccc2)C[C@@H]2c3cccc4c3c(cn4C)C[C@H]21
# output 0.943

Values were extracted from the supplement of paper PMC12494721.
